These measurements were taken from patent US9403850B2.

# Target under test: OXA-1 (Escherichia coli, UniProt P13661)
# Sequence (P13661 26-276): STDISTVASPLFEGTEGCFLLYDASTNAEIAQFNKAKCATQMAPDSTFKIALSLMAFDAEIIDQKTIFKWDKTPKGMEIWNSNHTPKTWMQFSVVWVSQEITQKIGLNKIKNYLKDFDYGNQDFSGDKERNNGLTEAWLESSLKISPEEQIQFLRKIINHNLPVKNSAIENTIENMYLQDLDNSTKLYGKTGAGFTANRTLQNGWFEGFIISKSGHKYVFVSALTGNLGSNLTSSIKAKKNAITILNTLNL
# Method: β-Lactamase enzyme inhibition assay, OXA-1 (nitrocefin substrate)
# Test parameters: nitrocefin substrate 100 μM, 15 min preincubation at 37° C.; read-out: IC50, Class D OXA-1
# Experimental: For SHV-5, Kpc-2, p99AmpC and OXA-1 β-lactamases, E. coli BL21(DE3) bacterial cells carrying expression plasmids (expressed as native untagged proteins) for the individual β-lactamases were grown in 1 L of Superbroth (Teknova Inc. Hollister, CA) supplemented with 100 μg/ml kanamycin selection and 1×5052 (0.5% glycerol, 0.05% glucose and 0.2% α-lactose) at 35° C. for 18-20 hours. […]
pIC50: −log10 of the molar value.
Metric name: pIC50

Input: Name the reported pIC50 value associated with the compound O=C(Cc1ccc2c(c1)CNC2)N[C@H]1Cc2cccc(C(=O)O)c2OB1O [Example 36]
Output: > 7.00
